Assay: HT29 colon tumor cell growth inhibition, primary screen, imaging, high content imaging, 72 h, CellTiter-Glo (AID 772)
Conditions: HCS imaging cell count, measured here: ATP CellTiter-Glo viability, at 10 µM, stronger effect = higher value
Screen size: about 3,300 compounds; about 20 (0.6%) were called active. Only a selection was taken, and actives are over-represented in it overall.
Recorded growth inhibition for the following compounds
// units = %; emit number, no label

A selection of reference data follows.
| Compound | Observable | Unit Of Measurement | Experimental Result |
| --- | --- | --- | --- |
| Cc1cc(C)cc(CC2CC(=O)N(c3cc(C)on3)C2=O)c1 (stereo not given) | growth inhibition | % | -16.1 |
| CCCCc1c(C)c2ccc(OCC(C)=O)cc2oc1=O | growth inhibition | % | -58.8 |
| Cn1c(OCc2ccco2)nc2c1c(=O)n(Cc1ccc(Cl)c(Cl)c1)c(=O)n2C | growth inhibition | % | -10 |
| Cc1ccc(OCC(=O)NCC(=O)n2nc(C)cc2C)cc1 | growth inhibition | % | -44.3 |
| Clc1ccc(-n2ncc3c(NCc4ccco4)ncnc32)cc1 | growth inhibition | % | 93.7 |

Would you kindly share the measured growth inhibition for `COc1cc2c(C(=O)N3CCN(c4ccccc4)CC3)c(C)oc2cc1Br` ?
-11.3

Would you kindly share the measured growth inhibition for `Cn1c(Cl)nc2c1c(=O)n(Cc1cccc(Br)c1)c(=O)n2C` ?
38

Would you kindly share the measured growth inhibition for `Cn1c(=O)c2c(nc(Br)n2Cc2ccc3ccccc3c2)n(C)c1=O` ?
9.53

Would you kindly share the measured growth inhibition for `Clc1ccc(-n2ncc3c(NCc4cccs4)ncnc32)cc1` ?
-9.82

Would you kindly share the measured growth inhibition for `CCC(=O)O[C@@H]1CC(=O)O[C@H](C)CC=CC=C[C@@H](O)[C@H](C)C[C@H](CC=O)[C@H](O[C@H]2O[C@H](C)[C@@H](O[C@H]3C[C@@](C)(O)[C@@H](OC(=O)CC)[C@H](C)O3)[C@H](N(C)C)[C@H]2O)[C@H]1OC` ?
-13.7

Would you kindly share the measured growth inhibition for CN(C)CC(O)COc1ccc(-c2ccc(C#N)cc2)cc1 (stereo not given) ?
86

Would you kindly share the measured growth inhibition for `Cc1nn(C)cc1C1C2=C(CC(C)(C)CC2=O)OC2=C1C(=O)CC(C)(C)C2` ?
-38.9

Would you kindly share the measured growth inhibition for COc1cccc2c(=O)c(SC(F)(F)C(F)C(F)(F)F)c(C)[nH]c12 (stereo not given) ?
65.5

Would you kindly share the measured growth inhibition for `COC(=O)/C=c1/s/c(=C(/C#N)C(=O)N2CCOCC2)n(-c2ccccc2)c1=O` ?
-73
